system: CCRF-CEM leukemia; experiment: NCI tumour cell line growth inhibition, 48 h
Listed next: entries and their corresponding TGI.

Some solved entries appear below for comparison.
[
  {
    "molecule": "CCCCc1c2c(nc3c1CC/C(=C\\c1ccc([N+](=O)[O-])cc1)C3=O)CCCC2",
    "TGI": "6.68 µM"
  },
  {
    "molecule": "Cc1ccc(C)c2c(N=Nc3ccccc3[N+](=O)[O-])c(O)[nH]c12",
    "TGI": "> 100 µM"
  },
  {
    "molecule": "O=C1C=C2CC[C@H]3[C@@H]4CC[C@H](Oc5c6ccccc6nc6ccccc56)[C@H]4CC[C@@H]3[C@H]2CC1",
    "TGI": "60.1 µM"
  },
  {
    "molecule": "CN=C(NC)N(C)c1nc(=[N+](C)C)ss1",
    "TGI": "> 100 µM"
  },
  {
    "molecule": "COC(=O)C1C(O)C(C)C(O)OC1C(C)C(O)C(C)/C=C\\C=C(/C)C(=O)Nc1c(C)c(OC(C)=O)c2c(c1O)C(=O)C(C)=C1OCOC(/C(C)=C/C(C)=O)=C12 (centres undefined)",
    "TGI": "34.4 µM"
  }
]

Ask: What value of TGI has been recorded for this entry: O=C1CCC2(c3ccccc3)Nc3ccc(Cl)cc3N12 (centres undefined)
Reply: > 100 µM

Ask: Would you kindly repeat that for O=c1c2c3c(sc2nc2n1N=C(c1ccc([N+](=O)[O-])cc1)CS2)CCCC3 ?
Reply: > 100 µM

Ask: Would you kindly repeat that for COc1ccc(-c2cc(-c3ccccc3)nc3c2CC(=O)Nc2ccccc2-3)cc1OC ?
Reply: > 100 µM

Ask: Would you kindly repeat that for C[N+](C)(C)C(C1=CCCC1=O)c1ccccc1 (centres undefined) ?
Reply: > 100 µM

----------
test system: HL-60(TB) leukemia; assay: NCI tumour cell line growth inhibition, 48 h; in the data active = GI50 below about 0.43 µM; inactive = the rest
Outcomes you can answer with include only these: 1 (active), -1 (inactive)

Solved entries:
[
  {
    "compound": "CC/C=C\\C[C@H](O)C/C=C1/C(=O)C=C[C@@H]1C/C=C\\CCCC(=O)NC",
    "assayed_target": "HL-60(TB) leukemia",
    "assigned_category": -1
  },
  {
    "compound": "COc1ccc(Oc2cc(NCCC(F)(F)F)c3ncc(-c4ccc(C(=O)NC5CC5)c(C)c4)n3n2)c(F)c1F",
    "assayed_target": "HL-60(TB) leukemia",
    "assigned_category": -1
  },
  {
    "compound": "O=Nc1c(O)c2ccccc2c2ccccc12",
    "assayed_target": "HL-60(TB) leukemia",
    "assigned_category": -1
  },
  {
    "compound": "COc1cc(C2C3=C(COC3=O)Nc3cc4c(cc32)OCO4)cc2c1OCO2 (centres undefined)",
    "assayed_target": "HL-60(TB) leukemia",
    "assigned_category": 1
  },
  {
    "compound": "CC(=O)/C(=C\\c1c(-c2ccccc2)[nH]c2ccccc12)S(=O)(=O)c1ccccc1",
    "assayed_target": "HL-60(TB) leukemia",
    "assigned_category": -1
  }
]

Ask: Outcome logged for Cn1c2ccccc2c2nnc(NNCc3ccccn3)nc21 in this assay:
Reply: 1

Ask: Would you kindly repeat that for COC(=O)[C@@H](OC)[C@@H]1Cc2cc3cc(OC4CC(OC5CC(O)C(O)C(C)O5)C(O)C(C)O4)c(C)c(O)c3c(O)c2C(=O)[C@H]1OC1CC(OC2CC(OC3CC(C)(O)C(O)C(C)O3)C(O)C(C)O2)C(O)C(C)O1 (some centres undefined) ?
Reply: 1

Ask: Would you kindly repeat that for CCOC(=O)c1nc2cc(C(F)(F)F)ccc2[n+]([O-])c1C ?
Reply: -1

Ask: Would you kindly repeat that for Cc1cc(O)cc(C)c1/C=C/c1cncc(C(=O)OC(C)(C)C)c1 ?
Reply: -1

----------
system: OVCAR-5 ovarian; test: NCI tumour cell line growth inhibition, 48 h
readout_type: TGI

[
  {
    "compound": "Cc1ccc(C(=O)N=Nc2c(O)[nH]c3ccc(Cl)cc23)cc1",
    "TGI": "> 50 µM"
  }
]

Ask: What value of TGI has been recorded for this entry: COc1ccccc1/C=C/c1nc2ccccc2o1
Reply: > 10 µM

Ask: Would you kindly repeat that for O=c1[nH]c(=O)n2n1C1C=CC2CC1 ?
Reply: > 100 µM

Ask: Would you kindly repeat that for Cc1c(-c2ccc(O)c(O)c2)oc(=O)c2c(O)cccc12 ?
Reply: 33.5 µM

Ask: Would you kindly repeat that for Cc1cc(C)c2c(=O)cc(-c3ccc4ccccc4c3)[nH]c2n1 ?
Reply: > 100 µM

Ask: Would you kindly repeat that for CS/C=C\C(=O)O[C@H]1C[C@@H]2[C@@H](O)c3occ(C)c3C[C@]2(C)[C@@H](C)C1 ?
Reply: > 100 µM

Ask: Would you kindly repeat that for Cc1cccc(C(=O)O)c1CC1NCCC2c3ccccc3NC12 (stereo unspecified) ?
Reply: > 100 µM

Ask: Would you kindly repeat that for Oc1ccccc1-c1nn2c(CCCCCCCCc3nnc4sc(-c5ccccc5O)nn34)nnc2s1 ?
Reply: > 76.6 µM

Ask: Would you kindly repeat that for CC(C)N(/C(F)=N\C(=O)Nc1ccccc1C(F)(F)F)C(C)C ?
Reply: > 100 µM

Ask: Would you kindly repeat that for Oc1c2c(c(O)c3ccccc13)C1(N=N2)c2ccccc2Oc2ccccc21 ?
Reply: 26.5 µM

Ask: Would you kindly repeat that for C[C@]12CC[C@@H]3c4ccc(O)cc4CC[C@H]3[C@@H]1CC[C@@H]2NS(=O)(=O)c1ccc2ccccc2c1 ?
Reply: 13.4 µM

Ask: Would you kindly repeat that for CC(OC(=O)N(N(CCCl)S(C)(=O)=O)S(C)(=O)=O)c1ccc([N+](=O)[O-])cc1 (stereo unspecified) ?
Reply: > 100 µM

Ask: Would you kindly repeat that for Cc1cc2c(C(C)C)c(O)c(O)c(C=Nc3ccccc3)c2c(O)c1-c1c(C)cc2c(C(C)C)c(O)c(O)c(C=Nc3ccccc3)c2c1O ?
Reply: > 100 µM

----------
tested on: SNB-19 CNS; assay: NCI tumour cell line growth inhibition, 48 h
readout_type: TGI

[
  {
    "compound": "CCCCCSC1C2C(=O)C(Br)=CC13CCNc1c(O)c4c5c(c13)=[N+]2CCC=5C=N4 (stereo not given)",
    "TGI": "4.97 µM"
  },
  {
    "compound": "CCCCCCCCCCCCCCCCOc1ccc(/C=C/C2=[N+](CCCl)CCO2)cc1",
    "TGI": "> 100 µM"
  },
  {
    "compound": "CCOC(=O)c1nc2cc(C(F)(F)F)ccc2[n+]([O-])c1C",
    "TGI": "> 100 µM"
  },
  {
    "compound": "N#C/C(=C\\c1cccc2cnccc12)N1N=NC2C=CC=CC21 (stereo not given)",
    "TGI": "> 100 µM"
  }
]

Ask: What value of TGI has been recorded for this entry: CN=C(NC)N(C)c1nc(=[N+](C)C)ss1
Reply: > 100 µM

Ask: Would you kindly repeat that for CN(C)CCOc1ccc(-c2cc(-c3ccc4c(c3)CC/C4=N\O)c(-c3ccncc3)o2)cc1 ?
Reply: 8.6 µM

Ask: Would you kindly repeat that for Cc1cn2c(/C=N/N=C(N)N)c(-c3ccsc3)nc2s1 ?
Reply: 23.7 µM

----------
tested on: CAKI-1 renal; assay: NCI tumour cell line growth inhibition, 48 h
readout_type: TGI

[
  {
    "compound": "CC/C(CC(=O)CCC(=O)Nc1ccc(C)c(C)c1)=N\\NC(=O)C(N)=O",
    "TGI": "> 100 µM"
  },
  {
    "compound": "Oc1ccccc1-c1nn2c(CCCCCCCCc3nnc4sc(-c5ccccc5O)nn34)nnc2s1",
    "TGI": "> 100 µM"
  }
]

Here is the next item to consider.
Ask: What value of TGI has been recorded for this entry: COc1cc(C2C3=C(COC3=O)Nc3cc4c(cc32)OCO4)cc2c1OCO2 (stereo not drawn)
Reply: > 100 µM

----------
test system: NCI-H226 lung; test: NCI tumour cell line growth inhibition, 48 h
Listed next: entries and their corresponding GI50.

Some solved entries appear below for comparison.
[
  {
    "compound": "COc1ccc(-c2nnc(Nc3nc(O)c(C4=c5cc(F)ccc5=NC4=O)s3)o2)cc1",
    "assayed_target": "NCI-H226 lung",
    "GI50": "46.3 µM"
  },
  {
    "compound": "CCCCCSC1C2C(=O)C(Br)=CC13CCNc1c(O)c4c5c(c13)=[N+]2CCC=5C=N4 (stereo not given)",
    "assayed_target": "NCI-H226 lung",
    "GI50": "3.15 µM"
  }
]

Ask: What value of GI50 has been recorded for this entry: FC(F)(F)c1[nH]ncc1-c1nc2ccc3[nH]ncc3c2c2c1CCCC2
Reply: 2.26 µM

Ask: Would you kindly repeat that for COc1ccc2[nH]c(O)c(/C=c3/ccc4c(c3)N=C(c3ccc(F)cc3)N=4)c2c1 ?
Reply: 2.5 µM

Ask: Would you kindly repeat that for Nc1cc2nc3ccccc3oc-2cc1=O ?
Reply: 2.57 µM

Ask: Would you kindly repeat that for Cc1cc(S(N)(=O)=O)c(S/C(=N\Nc2ccc([N+](=O)[O-])cc2)c2ccc3ccccc3c2)cc1Cl ?
Reply: 18.4 µM

Ask: Would you kindly repeat that for N#C/C(=C\c1cccc2cnccc12)N1N=NC2C=CC=CC21 (stereo not given) ?
Reply: 3.95 µM

Ask: Would you kindly repeat that for CCOC(=O)c1nc2cc(C(F)(F)F)ccc2[n+]([O-])c1C ?
Reply: > 100 µM

Ask: Would you kindly repeat that for O=C(Nc1cccc(-n2cc(-c3ccncc3)c(-c3ccc(O)c(Cl)c3)n2)c1)c1ccc(Cl)c(Cl)c1 ?
Reply: 8.06 µM

Ask: Would you kindly repeat that for Cc1ccc(C(=O)N=Nc2c(O)[nH]c3ccc(Cl)cc23)cc1 ?
Reply: 7.4 µM
